Test system: HeLa
Experiment: Antiproliferative activity against human HeLa cells after 72 hrs by MTT assay
Type: functional, cell-based
pEC50: −log10 of the molar value.
Values of pEC50 greater than or equal to 4 map to criterion met; values below map to criterion not met.

Query: Textbook exercise: given the entry COc1ccc(/C=C/C(=O)O)cc1O , state whether its pEC50 is greater than or equal to 4.
Response: criterion not met

Query: Textbook exercise: given the entry COc1cc(/C=C/C(=O)OCc2ccccc2)ccc1O [BENZYL FERULATE] , state whether its pEC50 is greater than or equal to 4.
Response: criterion met

Query: Textbook exercise: given the entry O=C(/C=C/c1ccc(O)c(O)c1)OCc1ccccc1 [BENZYL CAFFEATE] , state whether its pEC50 is greater than or equal to 4.
Response: criterion met

Query: Textbook exercise: given the entry COc1cc(O)c2c(c1)O[C@H](c1ccccc1)CC2=O , state whether its pEC50 is greater than or equal to 4.
Response: criterion not met

Query: Textbook exercise: given the entry COc1ccc(/C=C/C(=O)O)cc1OC , state whether its pEC50 is greater than or equal to 4.
Response: criterion not met

Query: Textbook exercise: given the entry O=c1[nH]cc(F)c(=O)[nH]1 , state whether its pEC50 is greater than or equal to 4.
Response: criterion met

Query: Textbook exercise: given the entry COc1cc(O)c2c(=O)cc(-c3ccccc3)oc2c1 , state whether its pEC50 is greater than or equal to 4.
Response: criterion not met
